Experimental system: erbB1^T790M (Homo sapiens, UniProt P00533, T790M)
Sequence (P00533 25-1210 T790M): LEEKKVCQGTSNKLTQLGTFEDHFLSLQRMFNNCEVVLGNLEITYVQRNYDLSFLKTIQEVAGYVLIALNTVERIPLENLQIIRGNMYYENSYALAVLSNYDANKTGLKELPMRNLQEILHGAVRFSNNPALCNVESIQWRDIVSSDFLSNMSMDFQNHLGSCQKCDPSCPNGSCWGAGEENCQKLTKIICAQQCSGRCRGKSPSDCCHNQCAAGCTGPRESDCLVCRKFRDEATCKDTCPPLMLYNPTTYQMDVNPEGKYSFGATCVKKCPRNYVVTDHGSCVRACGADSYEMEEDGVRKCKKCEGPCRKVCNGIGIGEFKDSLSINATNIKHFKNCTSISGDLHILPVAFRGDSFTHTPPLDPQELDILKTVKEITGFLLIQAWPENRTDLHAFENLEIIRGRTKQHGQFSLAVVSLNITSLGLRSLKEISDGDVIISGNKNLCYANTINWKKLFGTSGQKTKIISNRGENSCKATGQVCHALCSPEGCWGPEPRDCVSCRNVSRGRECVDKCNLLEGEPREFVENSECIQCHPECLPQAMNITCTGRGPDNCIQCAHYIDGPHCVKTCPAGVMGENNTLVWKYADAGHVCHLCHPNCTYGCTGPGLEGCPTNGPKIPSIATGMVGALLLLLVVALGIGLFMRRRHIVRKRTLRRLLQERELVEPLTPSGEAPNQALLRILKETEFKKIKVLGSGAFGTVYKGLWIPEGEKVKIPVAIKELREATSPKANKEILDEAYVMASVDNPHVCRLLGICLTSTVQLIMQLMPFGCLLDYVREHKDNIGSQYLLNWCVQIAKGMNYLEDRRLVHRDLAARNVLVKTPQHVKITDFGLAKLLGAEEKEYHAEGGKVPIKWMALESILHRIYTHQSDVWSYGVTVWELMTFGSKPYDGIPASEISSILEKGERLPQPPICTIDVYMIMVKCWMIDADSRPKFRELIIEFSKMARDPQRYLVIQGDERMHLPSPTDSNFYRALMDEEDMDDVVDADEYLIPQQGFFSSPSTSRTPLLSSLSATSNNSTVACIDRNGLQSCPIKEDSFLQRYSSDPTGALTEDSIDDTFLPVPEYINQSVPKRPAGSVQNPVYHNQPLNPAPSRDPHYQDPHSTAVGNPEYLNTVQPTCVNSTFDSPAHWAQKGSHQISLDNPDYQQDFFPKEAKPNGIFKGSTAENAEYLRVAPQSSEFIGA
Assay summary: Isolated enzyme inhibition (Invitrogen Z′-LYTE kinase assay)
Measurement context: 10 μM ATP, duplicate
So I've got a bunch of compounds here, and I need their pIC50 values.
Here pIC50 is given on a logarithmic scale as minus log10 of the concentration in mol/L.

Query string: Tell me the measured pIC50 of Cn1cnc([N+](=O)[O-])c1C[N+](C)(C)CCCC(=O)Nc1ccc2ncnc(Nc3cccc(Br)c3)c2c1 , please.
Result string: 6.10

Query string: Proceed to Cn1cc([N+](=O)[O-])nc1C[N+](C)(C)C/C=C/C(=O)Nc1ccc2ncnc(Nc3cccc(Br)c3)c2c1
Result string: 6.27

Query string: Now try Cn1cnc([N+](=O)[O-])c1C[N+](C)(C)C/C=C/C(=O)Nc1ccc2ncnc(Nc3cccc(Br)c3)c2c1.[Br-] .
Result string: 6.23

Query string: Subsequent entry: Cn1c(C[N+](C)(C)C/C=C/C(=O)Nc2ccc3ncnc(Nc4cccc(Br)c4)c3c2)ccc1[N+](=O)[O-].[Br-]
Result string: 6.35

----------
Assay summary: Pulse radiolysis (E(1) and fragmentation rate)
Type: physicochemical
Measurement context: benzyl-type radical formation
For each record, write down the corresponding kfrag. (fragmentation rate constant upon 1-electron reduction).

Query string: Bench note: what kfrag. (fragmentation rate constant upon 1-electron reduction) did CC[N+](CC)(CCOc1ccc(Nc2ncc3cc(-c4c(Cl)cccc4Cl)c(=O)n(C)c3n2)cc1)Cc1c([N+](=O)[O-])ncn1C.[Br-] [Compound 140] show?
Result string: 310 ± 20 s⁻¹

Query string: Moving on to the next compound: CC[N+](CC)(CCNC(=O)c1c(C)[nH]c(/C=C2\C(=O)Nc3ccc(F)cc32)c1C)Cc1c([N+](=O)[O-])nc(C)n1C.[Br-] [Compound 145]
Result string: 1050 ± 40 s⁻¹

Query string: Now try Cn1cnc([N+](=O)[O-])c1C[N+]1(C/C=C/C(=O)Nc2ccc3ncnc(Nc4cccc(Br)c4)c3c2)CCCCC1.[Br-] [Compound 23] .
Result string: 420 ± 60 s⁻¹

----------
What pIC50 was measured for each of the following?
Experimental system: erbB1 (Homo sapiens)
Sequence (P00533 25-1210): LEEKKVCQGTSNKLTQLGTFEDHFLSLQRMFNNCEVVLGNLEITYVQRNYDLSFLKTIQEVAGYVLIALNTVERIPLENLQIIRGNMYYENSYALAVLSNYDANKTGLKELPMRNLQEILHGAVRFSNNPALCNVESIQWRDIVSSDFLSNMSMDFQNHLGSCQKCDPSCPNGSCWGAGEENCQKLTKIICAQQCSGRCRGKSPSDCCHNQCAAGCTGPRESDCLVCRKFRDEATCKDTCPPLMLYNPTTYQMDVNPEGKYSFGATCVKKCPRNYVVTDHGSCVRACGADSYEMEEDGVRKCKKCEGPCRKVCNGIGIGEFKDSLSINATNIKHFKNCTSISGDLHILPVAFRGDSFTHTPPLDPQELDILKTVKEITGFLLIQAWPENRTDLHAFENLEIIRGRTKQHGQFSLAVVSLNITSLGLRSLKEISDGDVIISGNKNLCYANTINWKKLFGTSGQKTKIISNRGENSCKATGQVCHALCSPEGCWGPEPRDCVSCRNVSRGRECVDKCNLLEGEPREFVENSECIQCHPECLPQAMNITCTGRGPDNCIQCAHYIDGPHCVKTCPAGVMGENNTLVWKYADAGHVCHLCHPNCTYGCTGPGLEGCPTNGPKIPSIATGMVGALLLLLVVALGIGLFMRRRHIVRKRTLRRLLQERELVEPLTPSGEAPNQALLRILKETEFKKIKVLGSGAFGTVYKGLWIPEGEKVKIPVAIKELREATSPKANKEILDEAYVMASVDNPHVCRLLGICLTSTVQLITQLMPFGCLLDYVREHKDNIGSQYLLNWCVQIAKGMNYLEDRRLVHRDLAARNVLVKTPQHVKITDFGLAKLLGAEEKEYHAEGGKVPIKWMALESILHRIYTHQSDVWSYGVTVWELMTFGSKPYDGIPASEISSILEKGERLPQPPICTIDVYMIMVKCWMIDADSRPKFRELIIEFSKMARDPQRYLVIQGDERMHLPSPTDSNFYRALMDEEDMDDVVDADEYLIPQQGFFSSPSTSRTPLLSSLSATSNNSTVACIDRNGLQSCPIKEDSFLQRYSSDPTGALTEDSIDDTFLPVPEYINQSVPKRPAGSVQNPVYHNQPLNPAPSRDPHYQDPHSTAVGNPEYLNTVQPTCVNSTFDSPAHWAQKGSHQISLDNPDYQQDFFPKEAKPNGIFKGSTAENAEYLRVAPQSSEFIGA
Assay summary: Inhibition of erbB1 autophosphorylation in EGF-stimulated intact A431 cells (Western blot)
Quick note: pIC50 means taking -log10 of the concentration in moles per liter.

Query string: Sample C#Cc1cccc(Nc2ncnc3cnc(NC(=O)/C=C/C[N+](C)(C)Cc4c([N+](=O)[O-])ncn4C)cc23)c1 — what was its pIC50?
Result string: 6.29

Query string: Would you mind doing C#Cc1cccc(Nc2ncnc3cnc(NC(=O)/C=C/CN(C)C)cc23)c1 as well?
Result string: 8.10

Query string: One more compound: Cn1cnc([N+](=O)[O-])c1C[N+](C)(C)CCCC(=O)Nc1ccc2ncnc(Nc3cccc(Br)c3)c2c1
Result string: 5.44

Query string: Cn1cnc([N+](=O)[O-])c1C[N+](C)(C)C/C=C/C(=O)Nc1cc2c(Nc3ccc(F)c(C(F)(F)F)c3)ncnc2cn1 ?
Result string: 6.01

Query string: And Cn1cnc([N+](=O)[O-])c1C[N+]1(C/C=C/C(=O)Nc2ccc3ncnc(Nc4cccc(Br)c4)c3c2)CCCCC1.[Br-] ?
Result string: 5.92

Query string: Item: CN(C)C/C=C/C(=O)Nc1cc2c(Nc3ccc(F)c(C(F)(F)F)c3)ncnc2cn1
Result string: 8.10

Query string: Try this compound too: O=C(/C=C/CN1CCCCC1)Nc1ccc2ncnc(Nc3cccc(Br)c3)c2c1 [Compound 12, reference compound]
Result string: 7.35

Query string: Next compound: Cn1ncc([N+](=O)[O-])c1C[N+](C)(C)C/C=C/C(=O)Nc1ccc2ncnc(Nc3cccc(Br)c3)c2c1
Result string: 5.86

Query string: Here is the next compound: CN(C)C/C=C/C(=O)Nc1cc2c(Nc3ccc(F)c(Br)c3)ncnc2cn1
Result string: 8.30

Query string: Would you kindly repeat that for O=C(/C=C/CN1CCOCC1)Nc1ccc2ncnc(Nc3cccc(Br)c3)c2c1 [Compound 13, reference compound] ?
Result string: 7.80

Query string: What about Cn1cc([N+](=O)[O-])nc1C[N+](C)(C)C/C=C/C(=O)Nc1ccc2ncnc(Nc3cccc(Br)c3)c2c1 ?
Result string: 5.92

Query string: What about this compound? Cn1cnc([N+](=O)[O-])c1C[N+](C)(C)C/C=C/C(=O)Nc1cc2c(Nc3ccc(F)c(Br)c3)ncnc2cn1
Result string: 6.39

----------
Assay summary: Plasma and A431 tumour pharmacokinetics of compounds 11 and 20
Measurement context: NIHIII, mouse, plasma, ip, 75 umol/kg
Property measured: AUC
# output: number + unit

Query string: Record request: AUC value, item CN(C)C/C=C/C(=O)Nc1ccc2ncnc(Nc3cccc(Br)c3)c2c1 [Compound 11, reference compound]
Result string: 18 µM·h

----------
Would you kindly list melting point for each of these compounds?
Counter-ions that a name gives are not always drawn.

Query string: # melting point lookup, item C[N+](C)(C/C=C/C(=O)Nc1ccc2ncnc(Nc3cccc(Br)c3)c2c1)Cc1ccc([N+](=O)[O-])cc1 (as salt: bromide)
Result string: 178 to 181 °C

Query string: Entry Cn1cnc([N+](=O)[O-])c1C[N+]1(C/C=C/C(=O)Nc2ccc3ncnc(Nc4cccc(Br)c4)c3c2)CCOCC1.O=C[O-] please
Result string: 125 to 129 °C

Query string: Input Cn1cnc([N+](=O)[O-])c1C[N+]1(CCOc2ccc(Nc3ncc4cc(-c5c(Cl)cccc5Cl)c(=O)n(C)c4n3)cc2)CCCCC1.[Br-]
Result string: 176 to 178 °C

Query string: Another: CN(C)CCCC(=O)Nc1ccc2ncnc(Nc3cccc(Br)c3)c2c1
Result string: 180 to 182 °C

Query string: Try the compound C[N+](C)(C/C=C/C(=O)Nc1ccc2ncnc(Nc3cccc(Br)c3)c2c1)Cc1ccccc1[N+](=O)[O-] (as salt: bromide)
Result string: 166 to 169 °C

Query string: Please give the result for COc1cc2ncnc(Nc3ccc(F)c(Cl)c3)c2cc1NC(=O)/C=C/CN(C)C too.
Result string: 179 to 181 °C

Query string: What about C#Cc1cccc(Nc2ncnc3cnc(NC(=O)/C=C/CN(C)C)cc23)c1 ?
Result string: 163 to 166 °C

----------
Assay summary: Plasma and A431 tumour pharmacokinetics of compounds 42 and 161
Measurement context: female, NIH-III, mouse, plasma, ip, 31.6 umol/kg
Property measured: AUC (µM·h)
Note: unit µM·h is implicit; provide only the numeric part.

Query string: Please look up its AUC: CN(C)C/C=C/C(=O)Nc1cc2c(Nc3ccc(F)c(Br)c3)ncnc2cn1
Result string: 8

----------
System: SKBR3 cells
Assay summary: Cellular growth inhibition (sulforhodamine B)
Type: cell-based, Human
Measurement context: Homo sapiens, SK-BR-3; Table 3; first 4 hours anoxic; read-out: Cellular Growth Inhibition IC50 SKBR3 Anoxic
pIC50: −log10 of the molar value.
Label criterion met when pIC50 is at or above 6; otherwise label criterion not met.

Query string: Is pIC50 for CN(C)CCCC(=O)Nc1ccc2ncnc(Nc3cccc(Br)c3)c2c1 at or above 6?
Result string: criterion not met

Query string: And the next one, C[N+](C)(C/C=C/C(=O)Nc1ccc2ncnc(Nc3cccc(Br)c3)c2c1)Cc1ccc([N+](=O)[O-])cc1 ?
Result string: criterion not met

Query string: Follow-up entry: Cn1cnc([N+](=O)[O-])c1C[N+](C)(C)CCCC(=O)Nc1ccc2ncnc(Nc3cccc(Br)c3)c2c1
Result string: criterion not met

Query string: Same lookup for CN(C)C/C=C/C(=O)Nc1ccc2ncnc(Nc3cccc(Br)c3)c2c1 [Compound 11, reference compound] , please.
Result string: criterion met

Query string: Same read-out for Cn1cc([N+](=O)[O-])nc1C[N+](C)(C)C/C=C/C(=O)Nc1ccc2ncnc(Nc3cccc(Br)c3)c2c1 ?
Result string: criterion not met

Query string: Queued: Cn1cnc([N+](=O)[O-])c1C[N+]1(C/C=C/C(=O)Nc2ccc3ncnc(Nc4cccc(Br)c4)c3c2)CCCCC1.[Br-]
Result string: criterion met

Query string: And then COc1cc2ncnc(Nc3ccc(F)c(Cl)c3)c2cc1NC(=O)/C=C/CN(C)C , what is it?
Result string: criterion met

Query string: Cn1ncc([N+](=O)[O-])c1C[N+](C)(C)C/C=C/C(=O)Nc1ccc2ncnc(Nc3cccc(Br)c3)c2c1 ?
Result string: criterion not met

Query string: Repeat with O=C(/C=C/CN1CCCCC1)Nc1ccc2ncnc(Nc3cccc(Br)c3)c2c1 [Compound 12, reference compound]
Result string: criterion met

----------
Hi there, I'd appreciate the recorded % Release of effector for every entry that follows.
Assay summary: Steady state radiolytic reduction by the CO2.− radical with HPLC-MS
Type: physicochemical
Measurement context: HPLC-MS at 0.95 reducing equivalents
Numbers only; they are read as %.

Query string: Would you kindly share the measured % Release of effector for Cn1cc([N+](=O)[O-])nc1C[N+](C)(C)C/C=C/C(=O)Nc1ccc2ncnc(Nc3cccc(Br)c3)c2c1 ?
Result string: 10

Query string: // query: Cn1ncc([N+](=O)[O-])c1C[N+](C)(C)C/C=C/C(=O)Nc1ccc2ncnc(Nc3cccc(Br)c3)c2c1
Result string: 17

Query string: And for Cn1c(C[N+](C)(C)C/C=C/C(=O)Nc2ccc3ncnc(Nc4cccc(Br)c4)c3c2)ccc1[N+](=O)[O-].[Br-] ?
Result string: 46

Query string: Now consider Cn1cnc([N+](=O)[O-])c1C[N+](C)(C)C/C=C/C(=O)Nc1ccc2ncnc(Nc3cccc(Br)c3)c2c1.[Br-] .
Result string: 55
